Assay: anti-His antibody binders, primary screen, artefact control for SMM control protein annotation, biochemical, small-molecule microarray, 635 nm fluorescence (AID 1128);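 note: score merges feature fluorescence with signal-to-noise for each printed compound spot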
Settings: anti-His Alexa647 antibody binding, higher = more signal
Binning of composite z-score into classes: low bracket: < -0.3; middle bracket: ≥ -0.3 and < 0.3; high bracket: ≥ 0.3

Use these answered entries as a reference point.
molecule	class.label
C[C@H](ON=C1[C@H]2CCn3c(=O)n(-c4ccccc4)c(=O)n3[C@H]2[C@H](O)[C@@H]2O[C@H]12)c1cn([C@H](CO)Cc2ccccc2)nn1	low bracket
CCOC(=O)[C@H](CC(C)C)NC(=O)CCC1CC(OC(=O)NCc2cccc3ccccc23)CC2(CCCC(COC(=O)NCCc3ccc(Cl)cc3)O2)O1 (stereo not given in full)	high bracket
COc1ccc(COC(=O)NN=C2C[C@@H](O)[C@@H](O)[C@@H]3[C@@H]4C(=O)N(c5cccc(Oc6ccccc6)c5)C(=O)[C@@H]4CC[C@@H]23)cc1	middle bracket

Field: next molecule
Into which bin does this molecule go? CCOC(=O)[C@H](CC(C)C)NC(=O)CCC1CC(OC(=O)NCc2ccc3c(c2)OCO3)CC2(CCCC(COC(=O)NCc3cccc(C(F)(F)F)c3)O2)O1 (stereo not given in full) high bracket

###

Experiment: modulators of HCV replicon luciferase signal, primary screen, HCV replication inhibitor project, Huh7 cells, luciferase reporter (AID 1109);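 note: huh7 hepatoma cells harbouring a luciferase neomycin HCV replicon reporter; luciferase luminescence as measure of HCV replicon replication; test concentration not given here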
Conditions: 48 h, higher = more signal
Class met: z-score at least -0.4. Class not met: z-score below -0.4.

molecule	class.label
C[C@@H]1C=CCC(=O)OC[C@H]2O[C@@H](C=C[C@@H]2O)[C@H](C)C=CCC(=O)OC1	met
CC(C)=CCCC(C)=CCON=C1C[C@@H](O)[C@@H](O)[C@@H]2[C@@H]3C(=O)N(c4ccc(F)cc4F)C(=O)[C@@H]3CC[C@H]12	met
COc1ccc(O[C@H]2C=C[C@@H](c3ccccc3)O[C@@H]2CON=C(C)C)cc1	not met
CO[C@@H]1COC(=O)CC=C[C@@H](C)[C@@H]2C=C[C@H](O)[C@@H](COC(=O)CC=C[C@H]1C)O2	met
O=C1[C@H]2[C@H]3[C@H](O)[C@H](O)CC(=NOC[C@@H](O)COCc4ccco4)[C@H]3CC[C@H]2C(=O)N1Cc1ccccc1	not met
CCOC(=O)[C@H](CC(C)C)NC(=O)CCC1CC(OC(=O)NCc2cccc3ccccc23)CC2(CCCC(COC(=O)NCc3ccncc3)O2)O1 (some centres undefined)	not met
CCOC(=O)[C@H](Cc1ccccc1)NC(=O)CCC1CC(OC(=O)NCc2ccc3c(c2)OCO3)CC2(CCCC(COC(=O)NCCc3ccccc3OC)O2)O1 (some centres undefined)	not met
CON=CC[C@@H]1C=C[C@H](OC(C)=O)[C@@H](COC(C)=O)O1	met

# bool: z-score of "CC(C)=CCCC(C)=CCON=C1C[C@@H](O)[C@@H](O)[C@@H]2[C@@H]3C(=O)N(c4ccc(F)cc4F)C(=O)[C@@H]3CC[C@@H]12" >= -0.4 not met

Hi, just wondering whether "COC(=O)CC=C[C@@H](C)[C@@H](C=NO[C@@H]1O[C@H](COC(C)=O)[C@@H](OC(C)=O)[C@H](OC(C)=O)[C@H]1OC(C)=O)NS(=O)(=O)c1ccc(C)cc1" shows z-score of -0.4 or higher. not met

Confirm if z-score reported for the molecule "CCOC(=O)CCN1C(=O)[C@H]2[C@H]3[C@H](O)[C@H](O)CC(=NOCc4ccccc4)[C@H]3CC[C@H]2C1=O" is -0.4 or above. met

Answer whether z-score of "COc1cccc([C@H]2Oc3ccc(OC)cc3C(=NOC[C@@H](C)[C@H](OCc3ccccc3)C(C)C)[C@@H]2O)c1" is greater than or equal to -0.4. not met

Is the recorded value of z-score equal to or greater than -0.4 for this molecule? "O=C1[C@H]2[C@H]3[C@H](O)[C@H](O)CC(=NOCc4ccccc4)[C@@H]3CC[C@H]2C(=O)N1C[C@@H]1CCCO1" met

Please tell me: is the molecule "O=C1[C@H]2[C@H]3[C@H](O)[C@H](O)CC(=NOCc4ccccc4)[C@@H]3CC[C@H]2C(=O)N1Cc1ccc2c(c1)OCO2" at or over -0.4 in terms of z-score? met

Decide: is the reported value of z-score for "C#CCCCON=C1[C@H]2CCn3c(=O)n(-c4ccccc4)c(=O)n3[C@H]2[C@H](O)[C@@H]2O[C@H]12" equal to or greater than -0.4? not met

Decide: is the reported value of z-score for "CCOC(=O)NN=C1C[C@@H](O)[C@@H](O)[C@@H]2[C@@H]3C(=O)N(Cc4ccccc4)C(=O)[C@@H]3CC[C@H]12" equal to or greater than -0.4? met

Does the reported z-score for COC(=O)[C@H](C)NC(=O)CCC1CC(OC(=O)NCc2ccc3c(c2)OCO3)CC2(CCCC(COC(=O)NCC(c3ccccc3)c3ccccc3)O2)O1 (some centres undefined) fall at or above the -0.4 mark? met

# bool: z-score of "CO[C@H]1COC(=O)[C@@H](C)COC(=O)[C@@H](OCc2ccccc2)C=C[C@@H]1C" >= -0.4 not met

Determine whether measured z-score meets or exceeds -0.4 for "COc1ccc(O[C@@H]2[C@H](O)CO[C@@H]2C=Cc2ccccc2)cc1" met

Is z-score for "COc1cccc([C@H]2Oc3ccc(OC)cc3C(=NOC[C@@H](O)[C@H]3O[C@@H]4OC(C)(C)O[C@@H]4[C@H]3O)[C@@H]2O)c1" at or above -0.4? met

Dear colleague, could you confirm whether "COc1cccc([C@H]2Oc3ccc(OC)cc3C(=NO[C@@H](C)c3cn([C@H](CO)Cc4ccccc4)nn3)[C@@H]2O)c1" has z-score at or above -0.4? not met

Evaluate "C[C@@H]1NC(=O)[C@@H](C)COC(=O)[C@H](C)NC(=O)[C@@H](C)COC1=O" : z-score at minimum -0.4? met

Decide: z-score of CCOC(=O)[C@H](CC(C)C)NC(=O)CCC1CC(OC(=O)NCc2cccc3ccccc23)CC2(CCCC(COC(=O)NCCC(C)C)O2)O1 (some centres undefined) >= -0.4? met

Test whether the molecule "O=C1C=C[C@@H](O)[C@@H]2[C@@H]3C(=O)N(c4ccc(F)cc4F)C(=O)[C@@H]3CC[C@@H]12" records z-score of -0.4 or higher. not met

Decide: z-score of "CO[C@H](C1CCCCC1)[C@H](C)C=CCC(=O)OCCCc1ccccc1" >= -0.4? met

Does the molecule "Cn1c(=O)n2n(c1=O)[C@H]1[C@H](O)[C@@H]3O[C@@H]3C(=NOCc3ccccc3)[C@H]1CC2" have recorded z-score that is -0.4 or more? not met

Entry "COc1ccc(COC(=O)NN=C2C[C@@H](O)[C@@H](O)[C@@H]3[C@@H]4C(=O)N(Cc5ccccc5)C(=O)[C@@H]4CC[C@H]23)cc1" : is its z-score no less than -0.4? not met

Answer whether z-score of "CC(CCN1CCc2nc(-c3ccccc3)c(-c3ccccc3)cc2C1)=NOC[C@@H](O)[C@H]1O[C@@H]2OC(C)(C)O[C@@H]2[C@H]1O" is greater than or equal to -0.4. not met

###

Experiment: CREB reporter modulators under forskolin, primary screen, cell-based, PC12, CRE-LacZ reporter, forskolin-stimulated (AID 1146);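 note: PC12 cells with 6xCRE LacZ reporter stimulated by forskolin 10 µM; beta-galactosidase reporter signal reflecting CREB driven transcription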
Conditions: luminescence, 4.5 h, higher = more signal, called active from +8 up or from −8 down
z-score values by entry
Reply with just the number.

Example entries and their recorded answers appear below.
> print(dat)
                                smiles.data  test.value
1  Cc1ccc(S(=O)(=O)OC[C@H]2CN3[C@H](c4ccc(Br)cc4)[C@@H](C)CC[C@H]3C(=O)O2)cc1       0.535
2  COC(=O)CC=C[C@@H](C)[C@@H](C=NO[C@H](C)c1cn([C@@H]2COC[C@H]2O)nn1)NS(=O)(=O)c1ccc(C)cc1      -0.112
3  C=CC[C@@H]1C=C[C@H](ON=C(C)CCN2CCc3nc(-c4ccccc4)c(-c4ccccc4)cc3C2)[C@@H](CO)O1       -1.03
4  CC(C)CON=C1C[C@@H](O)[C@@H](O)[C@@H]2[C@@H]3C(=O)N(Cc4ccc5c(c4)OCO5)C(=O)[C@@H]3CC[C@H]12       0.201

Would you kindly share the measured z-score for "O=C1[C@H]2[C@H]3[C@H](O)[C@H](O)CC(=NOCc4ccccc4)[C@@H]3CC[C@H]2C(=O)N1c1ccc(F)cc1F" ? -0.445

Name the reported z-score value associated with the compound "CC(C)(C)N1C(=O)[C@H]2[C@H]3[C@H](O)C=CC(=O)[C@@H]3CC[C@H]2C1=O" -0.0003

# get_value(readout='z-score', item= "CO[C@H]1COC(=O)CC=C[C@@H](C)[C@H](OC)COC(=O)CCC[C@@H]1C" ) 0.0877

Values compiled from PubChem BioAssay.
